Source listed as patent US8691864B2.

system: SH-SY-5Y Cells; assay: MTS toxicity assay in SHSY5Y cells; type: cell-based, human; details: Dose 0.25 uM
# APP Toxicity SH-SY-5Y Cells (MTS assay) listing for each entry below
Write the answer as a number in % vehicle control, unit excluded.

CN1CC[C@@]2(C)c3cc(O)ccc3N(C)C2NC1=O (single isomer, unassigned; (-)) [MES 9205] = 105.8
C[C@]12CCN(Cc3ccccc3)C1N(Cc1ccccc1)c1ccc(O)cc12 (stereo partly shown) [MES 9238] = 103.8
Cc1cc2c(cc1O)[C@]1(C)CCN(C)C1N2C (stereo partly shown) [MES 9267] = 102
CNC(C)c1cccc(OC)c1 (stereo not shown) [MES 9271] = 103.45
C[C@@]12CCN(Cc3ccccc3)C1Nc1ccc(O)cc12 (stereo partly shown) [MES 9279] = 101.1
COc1ccc2c(c1)c(CCN(C)C)cn2Cc1ccccc1 [MES 9191] = 103.9

Notebook: pull reported APP Toxicity SH-SY-5Y Cells (MTS assay) for SH-SY-5Y Cells, entry CC(Br)C(=O)N(C)c1ccc(O)cc1 (stereo not shown) [MES 9291, Propionanilde] 100.5
